- EXPERIMENTAL_SYSTEM: postsynaptic alpha-adrenergic receptors (Rattus norvegicus)
- Construct: causes contraction of the isolated vas deferens; from tissue; host or cells: isolated rat vas deferens
- PROTOCOL_DETAILS: Alpha-blocking activity towards norepinephrine on isolated rat vas deferens
- Type: biochemical
- TEST_PARAMETERS: -log of concentration requiring doubled norepinephrine, read-out: pA2 (converted)
Is Kb at least 90 nM? Then label 1. If not, label 0.

Completed entries (count: 3):
1) CCOc1ccccc1N1CCN(CC(O)COc2scnc2C)CC1 (stereo not drawn) [B 1392] ... label 0
2) Cc1ncsc1OCCN1CCN(c2ccccc2O)CC1 [B 1430] ... label 1
3) CCOc1cccc(N2CCN(CCOc3scnc3C)CC2)c1 [B 1325] ... label 1

[ask] Test whether the compound COc1ccccc1N1CCN(CC(O)COc2scnc2C)CC1 (stereo not drawn) [B 1510] records Kb of 90 nM or higher.
[reply] label 0

[ask] Test whether the compound Cc1ncsc1OCCN1CCN(c2ccccc2F)CC1 [B 1305] records Kb of 90 nM or higher.
[reply] label 0

----------
# LD50 at 336 h per entry
- PROTOCOL_DETAILS: Acute toxicity in mice (oral, LD50)
- TEST_PARAMETERS: mouse, in vivo, male mice, single dose, 14-day observation
Numeric answer only, unit mg/kg assumed.

Examples from the recorded data:
1) Cc1cc(Cl)ccc1N1CCN(CCOc2scnc2C)CC1 ... 630
2) Cc1cccc(Cl)c1N1CCN(CCOc2scnc2C)CC1 ... 740
3) Cc1cc(Cl)ccc1N1CCN(CC(O)COc2scnc2C)CC1 (stereo not drawn) ... 515
4) Cc1ncsc1OCC(O)CN1CCN(c2ccccc2O)CC1 (stereo not drawn) ... 315

Summary for this compound, COc1ccccc1N1CCN(CC(O)COc2scnc2C)CC1 (stereo not drawn) : LD50 at 336 h is 235

Summary for this compound, Cc1ncsc1OCC(O)CN1CCN(c2ccccc2OCC(C)C)CC1 (stereo not drawn) : LD50 at 336 h is 1000

Summary for this compound, Cc1ncsc1OCCN1CCN(c2ccc(F)cc2)CC1 : LD50 at 336 h is 1000

Summary for this compound, Cc1ncsc1OCC(O)CN1CCN(c2ccccc2OC(C)C)CC1 (stereo not drawn) : LD50 at 336 h is 428

Summary for this compound, CCCOc1ccccc1N1CCN(CC(O)COc2scnc2C)CC1 (stereo not drawn) : LD50 at 336 h is 515

----------
- EXPERIMENTAL_SYSTEM: postsynaptic alpha-adrenergic receptors (Rattus norvegicus, UniProt P43140)
- Construct: causes contraction of the isolated vas deferens; from tissue; host or cells: isolated rat vas deferens
- Sequence (P43140 whole entry): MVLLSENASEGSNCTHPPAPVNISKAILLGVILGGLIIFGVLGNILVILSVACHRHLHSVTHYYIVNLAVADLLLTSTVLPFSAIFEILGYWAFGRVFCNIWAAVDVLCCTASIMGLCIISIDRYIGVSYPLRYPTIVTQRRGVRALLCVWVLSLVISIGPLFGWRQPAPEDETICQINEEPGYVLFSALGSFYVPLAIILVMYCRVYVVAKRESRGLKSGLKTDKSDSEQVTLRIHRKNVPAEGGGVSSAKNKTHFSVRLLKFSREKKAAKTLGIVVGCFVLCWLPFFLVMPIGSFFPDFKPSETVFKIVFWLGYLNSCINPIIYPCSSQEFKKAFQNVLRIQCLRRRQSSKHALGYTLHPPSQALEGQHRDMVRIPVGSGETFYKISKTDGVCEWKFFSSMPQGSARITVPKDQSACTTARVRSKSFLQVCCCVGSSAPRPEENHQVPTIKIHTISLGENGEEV
- PROTOCOL_DETAILS: Alpha-blocking activity towards norepinephrine on isolated rat vas deferens
- Format: biochemical
- TEST_PARAMETERS: -log of concentration requiring doubled norepinephrine, read-out: pA2 (converted)
PROPERTY: Kb (nM)
Numeric answer only, unit nM assumed.

1) CCCOc1ccccc1N1CCN(CC(O)COc2scnc2C)CC1 (stereo not drawn) ... 20

Summary for this molecule, Cc1ccc(Cl)cc1N1CCN(CCOc2scnc2C)CC1 : Kb is 81.3

Summary for this molecule, Cc1ncsc1OCC(O)CN1CCN(c2ccccc2OCCC(C)C)CC1 (stereo not drawn) : Kb is 22.9

----------
# LD50 at 336 h per entry
- PROTOCOL_DETAILS: Acute toxicity in mice (oral, LD50)
- TEST_PARAMETERS: mouse, in vivo, male mice, single dose, 14-day observation

Summary for this molecule, CCOc1cccc(N2CCN(CCOc3scnc3C)CC2)c1 [B 1325] : LD50 at 336 h is > 1000 mg/kg

Summary for this molecule, Cc1ccc(Cl)cc1N1CCN(CCOc2scnc2C)CC1 [B 1313] : LD50 at 336 h is 770 mg/kg

Summary for this molecule, Cc1ncsc1OCCN1CCN(c2ccccc2O)CC1 [B 1430] : LD50 at 336 h is 305 mg/kg

Summary for this molecule, CCOc1ccccc1N1CCN(CC(O)COc2scnc2C)CC1 (stereo not drawn) [B 1392] : LD50 at 336 h is 260 mg/kg

Summary for this molecule, CCOc1ccccc1N1CCN(CCOc2scnc2C)CC1 [B 1258] : LD50 at 336 h is > 1000 mg/kg

Summary for this molecule, Cc1ncsc1OCCN1CCN(c2ccccc2)CC1 [B 1216] : LD50 at 336 h is > 1000 mg/kg

----------
- Test system: lethal effect of norepinephrine
- PROTOCOL_DETAILS: Adrenolytic activity in vivo on the lethal effect of norepinephrine in rats
- TEST_PARAMETERS: Rattus norvegicus; wake male rats, norepinephrine 0.4 mg.kg^-1 intravenous, prior administration of product; read-out: ED50 (dose which protects 50% of the animals)
I'd appreciate it if you could label each record using ED50 and these ranges: group A: < 4 mg/kg; group B: ≥ 4 mg/kg and < 40 mg/kg; group C: ≥ 40 mg/kg

Completed entries (count: 5):
1. Cc1ncsc1OCC(O)CN1CCN(c2cccc(Cl)c2)CC1 (stereo not drawn) ... group B
2. Cc1ccc(Cl)cc1N1CCN(CCOc2scnc2C)CC1 ... group C
3. CCOc1ccccc1N1CCN(CCOc2scnc2C)CC1 ... group B
4. Cc1ncsc1OCCN1CCN(c2ccc(F)cc2)CC1 ... group B
5. Cc1ncsc1OCCN1CCN(c2cccc(C(F)(F)F)c2)CC1 ... group C

[ask] For the record CCCOc1ccccc1N1CCN(CC(O)COc2scnc2C)CC1 (stereo not drawn) , report the class its ED50 corresponds to.
[reply] group A

[ask] For the record Cc1ncsc1OCC(O)CN1CCN(c2cccc(C(F)(F)F)c2)CC1 (stereo not drawn) , report the class its ED50 corresponds to.
[reply] group C

[ask] For the record Cc1ncsc1OCC(O)CN1CCN(c2ccccc2OCCC(C)C)CC1 (stereo not drawn) , report the class its ED50 corresponds to.
[reply] group A

[ask] For the record Cc1cc(Cl)ccc1N1CCN(CC(O)COc2scnc2C)CC1 (stereo not drawn) , report the class its ED50 corresponds to.
[reply] group B

[ask] For the record Cc1ncsc1OCCN1CCN(c2ccccc2F)CC1 , report the class its ED50 corresponds to.
[reply] group B

[ask] For the record Cc1ncsc1OCC(O)CN1CCN(c2ccccc2OC(C)C)CC1 (stereo not drawn) , report the class its ED50 corresponds to.
[reply] group A

----------
- Tested on: lethal effect of norepinephrine
- PROTOCOL_DETAILS: Adrenolytic activity in vivo on the lethal effect of norepinephrine in rats
- TEST_PARAMETERS: Rattus norvegicus; wake male rats, norepinephrine 0.4 mg.kg^-1 intravenous, prior administration of product; read-out: ED50 (dose which protects 50% of the animals)
# ED50 per entry
Numeric answer only, unit mg/kg assumed.

1) Cc1cc(Cl)ccc1N1CCN(CCOc2scnc2C)CC1 ... 45

Summary for this compound, CCCCCOc1ccccc1N1CCN(CC(O)COc2scnc2C)CC1 (centres unmarked) : ED50 is 1.27

Summary for this compound, COc1ccccc1N1CCN(CCOc2scnc2C)CC1 : ED50 is 13

Summary for this compound, Cc1cccc(Cl)c1N1CCN(CCOc2scnc2C)CC1 : ED50 is 100

Summary for this compound, Cc1ncsc1OCCN1CCN(c2ccccc2)CC1 : ED50 is 33

Summary for this compound, Cc1ncsc1OCCN1CCN(c2ccccc2O)CC1 : ED50 is 8.3

Summary for this compound, Cc1ncsc1OCC(O)CN1CCN(c2ccccc2OCC(C)C)CC1 (centres unmarked) : ED50 is 0.4

Summary for this compound, Cc1ncsc1OCC(O)CN1CCN(c2ccccc2O)CC1 (centres unmarked) : ED50 is 0.6

Summary for this compound, CCOc1cccc(N2CCN(CCOc3scnc3C)CC2)c1 : ED50 is 49

Summary for this compound, COc1ccccc1N1CCN(CC(O)COc2scnc2C)CC1 (centres unmarked) : ED50 is 0.52

Summary for this compound, CCOc1ccccc1N1CCN(CC(O)COc2scnc2C)CC1 (centres unmarked) : ED50 is 0.3
